Target: Avi-KRAS G12V (1-169) GppNHp/RAF1 RBD-3xFLAG (52-151) (Homo sapiens, UniProt P01116, G12V)
Construct: Avi-KRAS G12V (1-169)
Sequence (P01116 1-169 isoform P01116-2 G12V): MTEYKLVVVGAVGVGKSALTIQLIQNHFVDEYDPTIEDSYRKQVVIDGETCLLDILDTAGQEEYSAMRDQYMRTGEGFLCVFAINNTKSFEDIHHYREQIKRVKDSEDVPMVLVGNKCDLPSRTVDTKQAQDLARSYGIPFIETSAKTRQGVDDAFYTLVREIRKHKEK
Test: Raf1-KRAS G12V-GppNHP disruption HTRF assay (Biological Example 1)
Format: binding
Conditions: KRAS G12V-GppNHp/RAF1 RBD HTRF
Experimental: A protein:protein interaction (PPI) Homogeneous Time Resolved Fluorescence (HTRF) assay was used to determine the effectiveness of compounds of the present disclosure in disrupting KRAS protein and effector RAF1 binding. The assay buffer included: 50 mM Tris pH 7.5, 100 mM NaCl, 5 mM MgCl2, 0.1% BSA, 0.01% Tween, and 10% DMSO. The bead buffer included: 50 mM Tris pH 7.5, and 0.01% Tween 20. […] Data was reported as percentage of activity, with DMSO as 100%. Data was plotted and analyzed using Prism 8.
recordedEndpoint: IC50

Some solved entries appear below for comparison.
| compound | IC50 |
| --- | --- |
| CC(=O)N1C2CCC1CN(c1nc(OC[C@@]34CCCN3C[C@H](F)C4)nc3c(F)c(-c4ccc(F)c5sc(N)c(C#N)c45)c(C(F)(F)F)cc13)C2 [Compound 438] | 1000 to 10000 nM |
| CCN(c1nc(OC[C@@]23CCCN2C[C@H](F)C3)nc2c(F)c(-c3ccc(F)c4sc(N)c(C#N)c34)c(C(F)(F)F)cc12)[C@@H]1C[C@@H](C)N(C(C)=O)C1 (atropisomer, axis not shown) [Compound 527] | 100 to 1000 nM |

API: the following record is the query input.
Form field IC50 for item CC(=O)N1CC(N(C)c2nc(OCC34CCCN3CC(F)C4)nc3c(F)c(-c4ccc(F)c5sc(N)c(C#N)c45)c(C(F)(F)F)cc23)CC1C (stereo not drawn) [Compound 291] on Avi-KRAS G12V (1-169) GppNHp/RAF1 RBD-3xFLAG (52-151) (Homo sapiens, UniProt P01116, G12V): 100 to 1000 nM
